B1: FBXO3 (parent)
chain: HDPLWRRHCKKYWLISEEEKTQKN

variants of: B1; experiment: protein stability index of a GFP-peptide fusion (GPS, HEK-293T) (PSI 1-6); higher = more stable; details: c terminus: a fixed tail appended;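 note: lentivirally expressed fusions sorted by FACS into six bins by GFP to DsRed ratio, PSI derived from sequencing read proportions per bin multiplied by bin number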
# if value of protein stability index reaches 3, tag MET; if it stays below, tag NOT MET

> print(dat)
              item.sequence  qualitative.label
1  HDPLKRRHCKKYWLISEEEKTQKN                MET
2  HDPLHRRHCKKYWLISEEEKTQKN                MET

**Query** Hello, I need to know if `HDPLWRRHCKKYWLISIEEKTQKN` has measured protein stability index not below 3. Thanks!
**Result** NOT MET

**Query** For this variant, is measured protein stability index 3 or higher? `HDPLWRRHCKKYLLISEEEKTQKN`
**Result** MET

**Query** State whether the measured protein stability index reaches 3, counting equality as reaching it, for `HDPLWRRHCKKYWSISEEEKTQKN`
**Result** MET

**Query** protein stability index >= 3 for `HDPLWRRHCKKYWLISEEEKTQKM` ?
**Result** MET

**Query** Determine whether this variant has protein stability index no lower than 3: `HDPLWRRNCKKYWLISEEEKTQKN`
**Result** MET

**Query** Kindly determine if protein stability index recorded for `HDPLWRRHCYKYWLISEEEKTQKN` is above or exactly 3.
**Result** NOT MET
